pIC50: −log10 of the molar value.
pIC50 values recorded for FGFR1 (Homo sapiens)
PROPERTY_MEASURED: pIC50

Answered cases to consult:
C=CC(=O)N1C[C@@H]2C[C@H]1[C@@H]2Nc1ncc2cc(-c3c(Cl)c(OC)cc(OC)c3Cl)ccc2n1 (relative stereo)    7.68
C=CC(=O)N1C[C@@H](Nc2ncc3cc(-c4c(Cl)c(OC)cc(OC)c4Cl)ccc3n2)C[C@H]1C    8.10
C=CC(=O)N1C[C@@H](Nc2ncc3cc(-c4c(Cl)c(OC)cc(OC)c4Cl)ccc3n2)C[C@H]1CC#N    7.74
C=CC(=O)N1C[C@H](Nc2ncc3cc(-c4c(Cl)c(OC)cc(OC)c4Cl)ccc3n2)[C@@H](C)C1    8.15

(I) C=CC(=O)N1C[C@@H](C)[C@H](Nc2ncc3cc(-c4c(Cl)c(OC)cc(OC)c4Cl)ccc3n2)C1
(II) C=CC(=O)N1C[C@H](O)[C@H](Nc2ncc3cc(-c4c(Cl)c(OC)cc(OC)c4Cl)ccc3n2)C1
Inquiry: Form field 'greater pIC50' accepts I or II ; which applies? Label of pick, please.
Reply text: II
(II: 8.24, I: 7.82)

---

test system: RT112/84; test: Cellular activity test (Cell titer-Glo), RT112/84; type: cell-based; settings: Homo sapiens, RT112/84, bladder cancer cell with abnormal FGFR, 72 h, read-out: Inhibitory activity against cells (IC50) RT112/84
PROPERTY_MEASURED: pIC50
Units for pIC50: none; it is -log10 of a concentration expressed in mol/L.

C=CC(=O)N1C[C@@H](Nc2ncc3cc(-c4c(Cl)c(OC)cc(OC)c4Cl)ccc3n2)C[C@H]1C(=O)N(C)C [Compound 30]    6.93

Inquiry: Need pIC50, item C=CC(=O)N1C[C@@H](Nc2ncc3cc(-c4c(Cl)c(OC)cc(OC)c4Cl)ccc3n2)C[C@H]1C [Compound 21]
Reply text: 7.27

Inquiry: Need pIC50, item C=CC(=O)N1C[C@@H](Nc2ncc3cc(-c4c(Cl)c(OC)cc(OC)c4Cl)ccc3n2)C[C@H]1CC#N [Compound 27]
Reply text: 6.90

Inquiry: Need pIC50, item C=CC(=O)N1C[C@@H](Nc2ncc3cc(-c4c(Cl)c(OC)cc(OC)c4Cl)ccc3n2)C[C@H]1CNC(C)=O [Compound 32]
Reply text: 7.11

---

target: UniProtKB P22455
Sequence (P22455 22-802): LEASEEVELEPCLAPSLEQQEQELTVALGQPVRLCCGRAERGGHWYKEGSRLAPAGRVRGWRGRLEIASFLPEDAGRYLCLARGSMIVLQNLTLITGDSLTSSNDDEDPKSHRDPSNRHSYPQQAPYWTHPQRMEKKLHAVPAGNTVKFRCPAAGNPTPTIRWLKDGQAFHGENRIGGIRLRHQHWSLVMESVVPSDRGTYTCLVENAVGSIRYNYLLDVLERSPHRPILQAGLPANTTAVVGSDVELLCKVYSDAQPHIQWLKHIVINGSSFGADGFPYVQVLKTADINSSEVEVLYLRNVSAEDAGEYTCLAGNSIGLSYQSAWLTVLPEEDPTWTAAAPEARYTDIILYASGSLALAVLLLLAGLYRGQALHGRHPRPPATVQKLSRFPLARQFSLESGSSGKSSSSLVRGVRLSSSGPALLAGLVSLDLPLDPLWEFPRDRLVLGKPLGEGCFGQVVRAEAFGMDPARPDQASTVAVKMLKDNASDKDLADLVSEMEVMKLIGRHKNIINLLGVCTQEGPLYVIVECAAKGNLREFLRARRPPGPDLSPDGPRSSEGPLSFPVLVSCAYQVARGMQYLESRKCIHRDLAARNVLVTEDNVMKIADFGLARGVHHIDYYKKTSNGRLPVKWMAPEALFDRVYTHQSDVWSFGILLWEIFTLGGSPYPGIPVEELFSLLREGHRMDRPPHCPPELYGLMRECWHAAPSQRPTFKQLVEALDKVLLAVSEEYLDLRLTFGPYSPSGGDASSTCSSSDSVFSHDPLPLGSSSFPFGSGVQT
pIC50: −log10 of the molar value.
PROPERTY_MEASURED: pIC50

Answered cases to consult:
C=CC(=O)N1C[C@@H](Nc2ncc3cc(-c4c(Cl)c(OC)cc(OC)c4Cl)ccc3n2)C[C@H]1CC#N    6.58
C=CC(=O)N1C[C@@H](Nc2ncc3cc(-c4c(Cl)c(OC)cc(OC)c4Cl)ccc3n2)C[C@H]1CO    7.00

(A) C=CC(=O)N1C[C@@H](C)[C@H](Nc2ncc3cc(-c4c(Cl)c(OC)cc(OC)c4Cl)ccc3n2)C1
(B) C=CC(=O)N1CCC(Nc2ncc3cc(-c4c(Cl)c(OC)cc(OC)c4Cl)ccc3n2)C(C)C1 (stereo not shown)
Inquiry: Identify the entry with the smaller pIC50: A or B . Label of pick, please.
Reply text: B

---

pIC50 values recorded for FGFR3 (Homo sapiens, UniProt P22607)
pIC50: −log10 of the molar value.
PROPERTY_MEASURED: pIC50

C=CC(=O)N1C[C@H](O)[C@H](Nc2ncc3cc(-c4c(Cl)c(OC)cc(OC)c4Cl)ccc3n2)C1    7.66

(I) C=CC(=O)N1CC[C@H](Nc2ncc3cc(-c4c(Cl)c(OC)cc(OC)c4Cl)ccc3n2)C1
(II) C=CC(=O)N1CCC(Nc2ncc3cc(-c4c(Cl)c(OC)cc(OC)c4Cl)ccc3n2)CC1
Inquiry: Identify the entry with the smaller pIC50: I or II . Label of pick, please.
Reply text: I
(I: 7.74, II: 8.15)
